- assay.target: Fuc(a1-2)[Gal(a1-3)]Gal(b1-4)GlcNAc(b1-3)GalNAc
- protocol: glycan array binding signal (z-score within array); higher = stronger binding
- conditions.used: glycan notation: IUPAC condensed, linker removed
Only a selection was taken, and the strongest signals are over-represented in it overall.
Exercise: state measured glycan array binding signal (z-score) for each of the binders provided.
Answers are plain numbers.

A selection of reference data follows.
binder	measurement
Cohesin-hDCIR (Homo sapiens) (protein) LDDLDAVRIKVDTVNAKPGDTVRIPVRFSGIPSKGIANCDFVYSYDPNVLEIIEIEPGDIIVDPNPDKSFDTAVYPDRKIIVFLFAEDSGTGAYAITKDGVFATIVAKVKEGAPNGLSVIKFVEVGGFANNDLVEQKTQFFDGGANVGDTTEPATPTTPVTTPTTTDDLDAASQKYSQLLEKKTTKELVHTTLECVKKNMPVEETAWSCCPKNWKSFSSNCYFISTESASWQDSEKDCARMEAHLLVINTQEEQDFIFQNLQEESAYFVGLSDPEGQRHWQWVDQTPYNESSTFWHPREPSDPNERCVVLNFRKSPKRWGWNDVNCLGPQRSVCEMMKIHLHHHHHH	-0.635
Clec2 (Mus musculus), Q9JL99 (protein) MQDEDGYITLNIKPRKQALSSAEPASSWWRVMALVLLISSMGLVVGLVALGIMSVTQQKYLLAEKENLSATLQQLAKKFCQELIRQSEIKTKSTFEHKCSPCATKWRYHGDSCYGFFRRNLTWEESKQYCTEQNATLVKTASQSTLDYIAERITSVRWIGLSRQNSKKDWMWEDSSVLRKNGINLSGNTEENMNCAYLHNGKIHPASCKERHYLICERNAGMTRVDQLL	-0.063
CFEM-SCL (Saccharomyces cerevisiae), O13547 (protein) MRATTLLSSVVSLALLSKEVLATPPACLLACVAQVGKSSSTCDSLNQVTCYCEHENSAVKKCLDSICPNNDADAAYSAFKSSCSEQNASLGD	-0.207
SP15308B-bot-339-22-339 (Bacteroides ovatus) (protein) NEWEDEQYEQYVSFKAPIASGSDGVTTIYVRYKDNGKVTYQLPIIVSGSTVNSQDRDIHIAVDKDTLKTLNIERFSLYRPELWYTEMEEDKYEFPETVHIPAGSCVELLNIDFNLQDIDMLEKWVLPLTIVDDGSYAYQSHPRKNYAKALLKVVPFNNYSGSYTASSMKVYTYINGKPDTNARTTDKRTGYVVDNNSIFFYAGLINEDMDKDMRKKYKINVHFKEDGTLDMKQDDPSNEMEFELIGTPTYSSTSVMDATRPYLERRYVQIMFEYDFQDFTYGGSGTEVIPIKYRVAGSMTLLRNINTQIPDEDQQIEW	-0.515

Please state, for each entry, its recorded glycan array binding signal (z-score).
1. Banana lectin (Musa acuminata) (protein) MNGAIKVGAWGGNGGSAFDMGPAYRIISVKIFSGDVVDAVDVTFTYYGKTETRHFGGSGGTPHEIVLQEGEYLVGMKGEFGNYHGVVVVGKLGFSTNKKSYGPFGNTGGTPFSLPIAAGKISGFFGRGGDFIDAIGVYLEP
2. SJA (Sophora japonica) (protein) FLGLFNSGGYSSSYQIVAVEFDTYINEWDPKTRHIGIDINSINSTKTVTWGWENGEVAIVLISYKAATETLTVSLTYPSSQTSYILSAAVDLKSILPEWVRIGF

[-0.195, 0.012]
